These measurements were taken from patent US20240287154A1.

target: human MC4R (Homo sapiens, UniProt P32245); assay: Intracellular cAMP levels in live cells, MC3R selectivity relative to MC4R; format: cell-based; details: cAMP assays in human MC3R and human MC4R stable cell lines
Sequence (P32245 whole entry): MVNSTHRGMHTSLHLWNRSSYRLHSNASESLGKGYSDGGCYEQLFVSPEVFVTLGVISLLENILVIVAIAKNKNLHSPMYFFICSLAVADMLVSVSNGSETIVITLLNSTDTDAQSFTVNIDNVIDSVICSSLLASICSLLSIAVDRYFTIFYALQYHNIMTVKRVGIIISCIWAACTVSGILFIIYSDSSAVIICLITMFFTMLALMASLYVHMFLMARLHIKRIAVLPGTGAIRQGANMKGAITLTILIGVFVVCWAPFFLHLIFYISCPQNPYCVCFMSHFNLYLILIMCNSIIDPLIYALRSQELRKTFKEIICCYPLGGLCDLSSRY
Non-standard residues stand in square brackets, D forms with d. Residues, ends and D or L forms follow the SMILES beside them. d(αMeW) = C[C@@](N)(Cc1c[nH]c2ccccc12)C(=O)O; Nle = CCCC[C@H](N)C(=O)O
MC3R selectivity (relative to MC4R) overview
I only need the number, thanks.

{"Molecule": "CCCC[C@H](NC(C)=O)C(=O)N[C@H](C)C(=O)N[C@@H](Cc1c[nH]cn1)C(=O)N[C@@H](Cc1ccccc1)C(=O)N[C@@H](CCCNC(=N)N)C(=O)N[C@H](Cc1c[nH]c2ccccc12)C(=O)N[C@@H](CC(=O)O)C(N)=O [CTX-1123, Nle-D-Ala-His-Phe-Arg-D-Trp-Asp] (Ac-[Nle][dA]HFR[dW]D-NH2)", "MC3R selectivity (relative to MC4R)": 28}

Kindly review the next molecule as well.
Ask: Could you share what MC3R selectivity (relative to MC4R) was measured for CCCC[C@H](NC(C)=O)C(=O)N[C@H](C)C(=O)N[C@@H](Cc1c[nH]cn1)C(=O)N[C@@H](Cc1ccccc1)C(=O)N[C@@H](CCCNC(=N)N)C(=O)N[C@](C)(Cc1c[nH]c2ccccc12)C(=O)N[C@@H](CC(=O)O)C(=O)N[C@@H](CCCNC(=N)N)C(=O)N[C@@H](Cc1ccccc1)C(=O)NCC(=O)O [CTX-1510] (Ac-[Nle][dA]HFR[d(αMeW)]DRFG-OH) , tested on human MC4R (Homo sapiens, UniProt P32245)?
Reply: 23
